- run.description: Toxicity liver stage against HepG2, at 10uM
- Format: cell-based
- Parameters: test concentration 10 uM, cell line HepG2-A16-CD81EGFP
- measurement.context: human, HepG2-A16-CD81EGFP cells; read-out: INHIBITION
// reported cytotoxicity at 10 µM for each item listed
// return numeric value only (unit: %, not printed)

Solved entries:
compound	cytotoxicity at 10 µM (%)
Cc1ccc(N2CCN(C)c3ncccc3C2)nn1	-3.77
Cn1cnc(-c2nc(C(=O)NCC3CCCO3)c3ccccn23)c1 (stereo unspecified)	-109
COCCN(Cc1ccc(F)cc1Cl)C(=O)c1csnn1	11.6
Cc1nnc(NC(=O)CN2CCOC(Cn3cccn3)C2)s1 (stereo unspecified)	-7.44
Cc1nnc(CNC(=O)[C@@H]2C[C@H](NC(=O)C(C)(C)C)CN2C)[nH]1	1.76
Cc1cc2c(c(=O)n1CCC(=O)O)C=CC(C)(C)O2	10.8

Param item = O=c1[nH]c(NCCO)nc2c1C1(CCCC1)Cc1ccccc1-2 ; retrieve measured cytotoxicity at 10 µM.
8.13

What about this compound? CNC(=O)[C@@]12CCO[C@@H]1CCN(S(=O)(=O)c1ccccc1C)C2
-72.8

What about this compound? CCn1ncc(C(=O)N2CCCN(CCCc3ccccc3)CC2)c1C
-2.62

What about this compound? Cc1ccccc1NC1CCN(C(=O)CCc2ccco2)CC1
-16.2

What about this compound? Cc1cc2ncc(C(C)NCc3cccnc3)c(C)n2n1 (stereo unspecified)
-0.0764

What about this compound? c1cnc(N2CC[C@@H]3[C@@H]2CCN3Cc2cccs2)nc1
3.91

What about this compound? Cc1cnc(N2Cc3nccn3CC(Cn3ncccc3=O)C2)nc1 (stereo unspecified)
7.54

What about this compound? Cc1cccc(CN2C[C@@H]3OCCN(c4ccnc(N(C)C)n4)[C@@H]3C2)c1
-94.9

What about this compound? O=C(c1ccncc1)N1CCC2(CC1)C(=O)Nc1ccccc12
-146

What about this compound? O=C(c1cc2cc(F)ccc2[nH]1)N1CCC(Nc2cccnn2)CC1
-5.97

What about this compound? O=C(c1cocn1)N1CCC[C@]2(C[C@@H](OCC3CC3)CO2)C1
-76.4

What about this compound? O=C(c1ccc[nH]1)N1CCc2nnc(Cn3cccn3)n2CC1
5.62

What about this compound? Cc1ccc(NC(=O)C(C)n2ccc(C(F)(F)F)n2)nc1 (stereo unspecified)
9.6

What about this compound? Cc1cnn(CCC(=O)NS(=O)(=O)N2CCc3ccccc32)c1
4.72

What about this compound? CN(C)[C@@H]1CCN(C(=O)c2ccccn2)[C@H]1Cc1ccncc1
-63.6

What about this compound? CC(C)n1cc(CN2CCCN(C(=O)CC3CCCO3)CC2)cn1 (stereo unspecified)
-12.4

What about this compound? CC(c1nc(C2CC2)no1)N1CCN(Cc2ccc(C#N)cc2)CC1 (stereo unspecified)
3.71

What about this compound? COc1ccccc1CNC(=O)C1=NN(c2ccc(C)cc2)C(=O)CN1
25.1

What about this compound? Fc1ccc(-c2nnc(CN3CCCC(Cn4cncn4)C3)o2)cc1 (stereo unspecified)
-4.87

What about this compound? N#Cc1cccnc1NCc1ccc(S(=O)(=O)NCC2CCCO2)cc1 (stereo unspecified)
5.98
